Tested on: NCI-H522 lung
Assay Text: NCI tumour cell line growth inhibition, 48 h
Endpoint Label: TGI

So what does the record say about TGI for O=C(N/N=C/c1cc(Cl)cc(Cl)c1[O-])c1ccccc1O.O=C(N/N=C/c1cc(Cl)cc(Cl)c1[O-])c1ccccc1O.[Co+2] ? 1.63 µM

Another molecule: Cn1c(C(=O)c2ccncc2)cc2ccccc21 > 100 µM

Another molecule: CCOC(=O)C1=C(O)C2C3CC4C2C(O)=C(C(=O)OCC)C2C1C3C42 (stereo not given) > 100 µM

Another molecule: COc1ccc(OC)c(NC(=O)CCC/C(CC(=O)c2ccc(O)c(OC)c2)=N\Nc2nnc(C)n2N)c1 > 100 µM

Another molecule: COc1ccc2c(=O)cc(-c3ccccc3)[nH]c2c1 14.2 µM

Another molecule: Nc1[nH]nc(Nc2ccc(Cl)cc2)c1P(=O)(c1ccccc1)c1ccccc1 48.5 µM

Another molecule: CS(=O)(=O)c1nc(-c2cc3c(c(S(C)(=O)=O)n2)CCCC3)cc2c1CCCCC2 > 100 µM

Another molecule: CCCCCCCCCCCCCCCCNC(=O)C(=O)/C=C(\O)c1ccc(C)cc1 > 10 µM

Another molecule: O=c1/c(=C/c2ccccc2[N+](=O)[O-])sc2nc3ccccc3n12 > 100 µM

Another molecule: c1cc2c(s1)-c1sccc1C21OCCO1 > 100 µM

Another molecule: CC(=O)Nc1ccc(C(=O)NN2C(=O)C(Cl)/C2=C/c2ccco2)cc1 (stereo not given) > 100 µM

Another molecule: S=c1snc2n1CCN2 > 100 µM

Another molecule: COc1cc(F)c(F)c(Nc2ccc(I)cc2F)c1NS(=O)(=O)C1(C[C@H](O)CO)CC1 > 10 µM

Another molecule: C#C/C=C\CCCC/C=C\C#CC#CCCCC#CC#C[C@H](COS(=O)(=O)O)OS(=O)(=O)O > 100 µM

Another molecule: CC(C)(C)OC(=O)NC1CC2(C=C(Br)C(=O)C(Br)=C2)OC1=O (stereo not given) 3.92 µM

Another molecule: CC1=C[C@H]2c3c([nH]c4ccccc34)C(c3c[nH]c4ccccc34)[C@H]2CC1 (stereo not given in full) 18.5 µM

Another molecule: COc1cc2c(cc1OC)C(=O)N(c1ccc(O)cc1)C2=O > 100 µM

Another molecule: CN(C(=O)C12C3C4C5C3C1(C(=O)C13C6C7C8C6C1C8C73)C5C42)C(C)(C)C (stereo not given) > 50 µM

Another molecule: C[C@@H]1C[C@H](C)CN(S(=O)(=O)c2ccc3c(NO)c4ccc(S(=O)(=O)N5C[C@H](C)C[C@H](C)C5)cc4c(N=O)c3c2)C1 0.36 µM

Another molecule: COc1ccc(-n2c(N)c(C#N)[nH]c2=O)cc1 > 10 µM

###

Kindly supply the reported TGI values for the records listed here.
Tested on: T-47D breast
Assay Text: NCI tumour cell line growth inhibition, 48 h

So what does the record say about TGI for NCCSSCCN ? > 100 µM

Another compound: NS(=O)(=O)c1ccc(-n2nc3c(c2-c2ccc(Cl)cc2)Cc2ccccc2-3)cc1 > 100 µM

Another compound: O=C(O)CCS/C(=C\C(SCCC(=O)O)c1ccc(Cl)cc1)c1ccc(Cl)cc1 (stereo not drawn) > 100 µM

Another compound: COc1cc(F)c(F)c(Nc2ccc(I)cc2F)c1NS(=O)(=O)C1(C[C@H](O)CO)CC1 > 9.3 µM

Another compound: CCOC(=O)c1c(N=P(c2ccccc2)(c2ccccc2)c2ccccc2)nnc(-c2ccccc2)c1-c1ccccc1 > 100 µM

Another compound: O=S(=O)(NC1=NCCN1C(=S)SN1CCn2c1nsc2=S)c1cccc2ccccc12 > 100 µM

Another compound: Cc1c2c3ccccc3nc-2n(C)c2ccccc12 41.3 µM

Another compound: COc1cc2ncn(-c3cc(OCc4ccccc4C(F)(F)F)c(C(=O)N(C)C)s3)c2cc1OC > 17 µM

Another compound: CC(=O)c1c(C)nc(SSc2nc(C)c(C(C)=O)c(-c3ccc(Cl)cc3)c2C#N)c(C#N)c1-c1ccc(Cl)cc1 > 150 µg/mL

Another compound: CC1(C)OC2[C@@H](CO[C@@]3([C@@H](O)CCO)OC(C)(C)O[C@@H]23)O1 (stereo partly drawn) > 100 µM

Another compound: S=c1snc2n1CCN2 37.4 µM

Another compound: Cc1nc(C)c(N2CCN(S(=O)(=O)N(Cc3ccccc3)Cc3ccccc3)CC2)c(=O)[nH]1 > 85.7 µM

Another compound: O=C(/C=C/c1cccc(Oc2ccccc2)c1)NCc1ccc(C(=O)NCc2ccccc2)cc1 > 100 µM

Another compound: CN(C)c1ccc(/C=C2\N=C(NNc3ccccc3)NC2=O)cc1 38.8 µM

Another compound: NC(=O)N/N=C(/CC1C(=O)Oc2ccccc21)c1ccccc1O (stereo not drawn) > 100 µM

Another compound: C[C@@H]1C[C@H](C)CN(S(=O)(=O)c2ccc3c(NO)c4ccc(S(=O)(=O)N5C[C@H](C)C[C@H](C)C5)cc4c(N=O)c3c2)C1 0.362 µM

Another compound: CCOC(=O)C(Cc1c[nH]c2c(N(CCO)CCO)cccc12)(NC(C)=O)C(=O)OCC > 1000 µM

Another compound: CCN(CC)CCCNc1ccc2nc(C)n3c4ccc(O)cc4c(=O)c1c23 31.4 µM

Another compound: O=C(c1nc2ccc([N+](=O)[O-])cc2[nH]c1=O)C(O)c1ccc2c(c1)OCO2 (stereo not drawn) > 100 µM

Another compound: CCCC(CCC(N)=O)(CCC(N)=O)[N+](=O)[O-] > 100 µM

Another compound: CCN1CCC(O)(c2ccc(Oc3ccc(F)cc3)cc2)C(C(=O)c2ccc(Oc3ccc(F)cc3)cc2)C1 (stereo not drawn) 30.9 µM

Another compound: O=CNNC(=O)Nc1cccc2ccccc12 > 100 µM

Another compound: O=C(O)Cc1ccc(Nc2nc3cc(C(F)(F)F)ccc3nc2C(=O)O)cc1 > 100 µM

Another compound: CC[C@@]1(O)C(=O)OCc2c1cc1n(c2=O)Cc2c-1nc1ccccc1c2/C=N\NC(=O)C1CCCN1 (stereo partly drawn) > 100 µM

Another compound: O=C(OC1C2OC(=O)c3cc(O)c(O)c(O)c3Oc3cc4c(c(O)c3O)-c3c(cc(O)c(O)c3O)C(=O)OCC3OC(O)C(OC(=O)c5cc(O)c(O)c(O)c5Oc5cc6c(c(O)c5O)-c5c(cc(O)c(O)c5O)C(=O)OC1C(COC6=O)OC2O)C(OC(=O)c1cc(O)c(O)c(O)c1)C3OC4=O)c1cc(O)c(O)c(O)c1 (stereo not drawn) > 100 µM

Another compound: Cc1cnc2sn(-c3ccc([N+](=O)[O-])cc3)c(=O)c2c1 > 100 µM

Another compound: O=S(=O)(NCCNc1nccc(-c2c(-c3ccc(F)c(O)c3)nc3sccn23)n1)c1ccc(F)cc1 28 µM

Another compound: Cc1ncc(C(=O)Nc2ccc(CN3CCN(C)CC3)c(C(F)(F)F)c2)cc1C#Cc1cnc2cccnn12 12.3 µM
